# measured target: 5-hydroxytryptamine receptor 2C (Homo sapiens)
# condition parameters: Compound concentration 10 µM; call rule not given here
Labels: 1 for active, 0 for inactive

# substance smiles, answer label
measured = [
    ("Cc1cc(C)c(N)c(C#Cc2cccc(F)c2)n1", 0),
    ("COc1ccccc1N1CCN(CCCCNC(=O)c2ccc3ccccc3c2)CC1", 1),
    ("Cc1c(C2=CCN(C(=O)N(C)C(C)C)CC2)nnn1-c1cccnc1F", 0),
    ("CN1CCN(c2ccc(Nc3c4ccccc4nc4ccccc34)cc2)CC1", 0),
    ("CNc1nc(NCc2ccc(NS(C)(=O)=O)cc2Cl)cc(-c2ccccn2)n1", 1),
    ("Cc1c(F)cccc1NC(=O)Nc1ccc(Cl)c(S(=O)(=O)[C@H]2CCCNC2)c1O", 0),
    ("c1ccc(N2CCN(Cc3nc4ccccc4[nH]3)CC2)nc1", 0),
    ("Cc1nc2sccn2c(=O)c1CCN1CCC(=C(c2ccc(F)cc2)c2ccc(F)cc2)CC1", 1),
    ("COC(=O)C1=C(C)NC(C)=C(C(=O)OCCCN2CCC(c3ccccc3)(c3ccccc3)CC2)[C@H]1c1cccc([N+](=O)[O-])c1", 1),
    ("O=C(O)CC1CCC2(CC1)CCN(c1cc(OC(F)(F)F)ccc1Cl)CC2", 0),
]
